// data source = PubChem BioAssay (NCI)

# System: SF-295 CNS
# measurement-description: NCI-60 one-dose screen, 48 h
# assay-context: 10 µM unless noted
About 83,000 compounds went through this panel and 20% of them were active in at least one assay; those are over-represented in the sample as a whole. Active and inactive are the calls of the source. How the source made its calls: active means growth percent below 10; inactive means the rest.
Pick one and only one: T = active, F = inactive

Some entries whose results are on file:
C=C1C(=O)O[C@H]2[C@H]1CC/C(COC(=O)NCCCCCCCCNC(=O)OC/C1=C/CC[C@@]3(C)O[C@H]3[C@H]3OC(=O)C(=C)[C@@H]3CC1)=C\CC[C@@]1(C)O[C@@H]21
T
CCN1C(=O)N(CC)C2C1NN=c1s/c(=C\c3ccccc3Br)c(=O)n12 (centres undefined)
T
O=C1c2cc3c(cc2-c2c1c1ccc(Cl)cc1c(=O)n2C[C@H](O)CO)OCO3
T
COc1cccc(Nc2ccnc3[nH]c4ccc([N+](=O)[O-])cc4c23)c1
F
O=C(c1ccc(F)c(Cl)c1)N1c2ccccc2Sc2ccccc21
F
CCn1c2ccc(O)cc2c2c(C)c3c[n+](C(C)C)ccc3c(C)c21
F
CC(C)CN1CC(C(=O)Nc2ccc3c(c2)-c2ccccc2C3)CC1=O (centres undefined)
F
Cn1cc(C(=O)c2nc(-c3c[nH]c4ccc(Br)cc34)no2)c2cc(Br)ccc21
F

Next:
Q: Field: outcome | Entry: `CN1CCN(Cc2cc(NC(=O)c3cccc(C#Cc4cccc5[nH]nc(N)c45)c3)cc(C(F)(F)F)c2)CC1`
A: F

----------
# System: SK-OV-3 ovarian
# measurement-description: NCI-60 one-dose screen, 48 h
# assay-context: 10 µM unless noted
About 83,000 compounds went through this panel and 20% of them were active in at least one assay; those are over-represented in the sample as a whole. Calls of active or inactive are those of the source. How the source made its calls: active means growth percent below 10; inactive means the rest.
Write down the outcome that applies. Available outcomes: active, inactive

Worked examples, 8 molecules total:
c1ccc2cc(Cn3c[n+](Cc4ccc5ccccc5c4)c4ccccc43)ccc2c1
active
O=C(CSc1nnc2sc(Nc3cccc(Cl)c3)nn12)c1ccc(F)cc1
inactive
COc1ccc2c(c1)c(-c1nc(-c3cn(C)c4ncccc34)cs1)cn2CCO
inactive
COc1cc2c3c(n(CCCCNCCCn4c5c(c6cc(OC)c(OC)cc6c4=O)C(=O)c4cc6c(cc4-5)OCO6)c(=O)c2cc1OC)-c1cc2c(cc1C3=O)OCO2
inactive
O=C(CSc1nc2ccc([N+](=O)[O-])cc2[nH]1)Nc1cccc([N+](=O)[O-])c1
inactive
Cc1cc(C(=O)Nc2cc(Nc3ncccc3-c3ncnc4nc[nH]c34)ccc2F)cc(C(F)(F)F)c1
inactive
Fc1ccc(CNc2c3ccccc3nc3ccccc23)cc1
inactive
O=C(CCCCCCN1CC(=O)N2[C@@H](c3ccc(Cl)cc3)c3[nH]c4ccccc4c3C[C@H]2C1=O)NO
inactive

Q: Which outcome was assigned to CC1COCC(C)N1C1=C(Cl)C(=O)c2ccccc2C1=O (stereo not drawn) in this test?
A: inactive

Q: Hello, I am checking results. What call was entered for `COC(=O)c1nc(-c2ccccc2)oc1S(=O)(=O)N1CCC(C(N)=O)CC1` ?
A: inactive

Q: # lookup: test call for `Cn1c(=O)c2c(c3ccccc31)OC(N)=C(C#N)C21C(=O)c2ccccc2C1=O`
A: inactive

Q: Identify the outcome logged in this assay for the molecule shown: `CCCn1c(=S)sc2c1nc(C)n1c(Nc3ccccc3)nnc21`
A: inactive

Q: Please share the test call associated with `CN1CCN(CCOc2ccc(-c3cnc4c(-c5ccc(C(F)(F)F)cc5)cnn4c3)cc2)CC1` .
A: inactive

----------
# Test system: A549/ATCC NSCLC
# measurement-description: NCI-60 one-dose screen, 48 h
# assay-context: 10 µM unless noted
Compounds without any hit were thinned out: in the full panel of roughly 83,000, 20% have a hit. Calls of active or inactive are those of the source. The calls were made as follows: active = growth percent below 10; inactive = the rest.
Answer with one of the outcomes active, inactive

// known answers, use as guide
CCCCCCC(=O)Nc1ncc(Cc2ccc(C)cc2)s1
inactive
CCN1C(=O)N(CC)C2C1NN=C1SCC(=O)N12 (stereo not given)
inactive
COc1ccc(NC(=O)c2ccc(C(=O)Nc3ccc(OC)cc3OC)cc2)c(OC)c1
inactive
COc1ccc2c(c1)c(-c1ccc(-c3cn(C)c4ccc(OC)cc34)[nH]1)cn2C
inactive

Pending compound:
Q: Called result for `COc1cc2c(c(OC)c1OC)C(=O)N[C@@H]1[C@@H](O)[C@@H](O)[C@H](O)C[C@@H]21`
A: inactive

----------
# Test system: NCI-H226 lung
# measurement-description: NCI-60 one-dose screen, 48 h (100 = growth as untreated, 0 = no growth, -100 = all killed)
# assay-context: 10 µM unless noted
This is part of a sample that, as a whole, favours compounds with a hit. Of some 83,000 tested, about 20% had one in any assay. Active and inactive are the calls of the source. How the source made its calls: active means growth percent below 10; inactive means the rest.
Entries and their measured growth follow.

Answered examples (3):
CCCCCCNc1nc(NCCCCCC)c2[nH]c(NCCCCCC)nc2n1
92.1% (inactive)
O=c1[nH]cnc2c1C(c1ccc(Br)cc1)c1sc3c(F)cccc3c1O2 (centres undefined)
92.2% (inactive)
Cc1ccc(C)c2c1C(O)(C#Cc1ccccc1)c1ccccc1C2(O)C#Cc1ccccc1 (centres undefined)
89.9% (inactive)

Then there is this molecule:
Q: GET growth where system = NCI-H226 lung and item = `C=NNc1ccccc1`
A: 87.5% (inactive)

----------
# Tested on: U251 CNS
# measurement-description: NCI-60 one-dose screen, 48 h
# assay-context: 10 µM unless noted
About 83,000 compounds went through this panel and 20% of them were active in at least one assay; those are over-represented in the sample as a whole. The source made the active and inactive calls. The calls were made as follows: active = growth percent below 10; inactive = the rest.
Output constraint: value belongs to T = active, F = inactive

CN1CCN(CCOc2ccc(-c3cnc4c(-c5ccc(C(F)(F)F)cc5)cnn4c3)cc2)CC1
T
O=C1Nc2ccc(F)cc2/C1=C\c1nc(-c2ccccc2F)n2ccccc12
F
COc1cc(C(=O)/C=C/c2c(-c3cccs3)nc3ccccn23)cc(OC)c1OC
T
COc1ncc2cc1NS(=O)(=O)c1cccc(c1)C(=O)NCC1=CC=C(S1)c1ncnc3c1SC2=C3C
T

Moving on to the next molecule.
Q: Test call, this molecule: `COc1ccc(-c2ccc(=O)oc2C#Cc2cc(OC)c(OC)c(OC)c2)cc1O`
A: F

----------
# Tested on: HCT-116 colon
# measurement-description: NCI-60 one-dose screen, 48 h
# assay-context: 10 µM unless noted
This is part of a sample that, as a whole, favours compounds with a hit. Of some 83,000 tested, about 20% had one in any assay. The source made the active and inactive calls. How the source made its calls: active means growth percent below 10; inactive means the rest.
Hi there, use one of these labels in your reply, thanks! active, inactive

COP(=O)(OC)c1nnn(-c2cccc([N+](=O)[O-])c2)c1C
inactive
O=C(Nc1ccccc1)c1sc(-c2ccccc2)cc1O
inactive
C[C@@H]1CC[C@@]2(OC1)O[C@H]1C[C@H]3[C@@H]4CC=C5C[C@@H](O[C@@H]6O[C@H](CO)[C@@H](O[C@@H]7O[C@@H](CO)[C@H](O)[C@H]7O)[C@H](O)[C@H]6O[C@@H]6O[C@@H](C)[C@H](O)[C@@H](O)[C@H]6O)CC[C@]5(C)[C@H]4CC[C@]3(C)[C@H]1[C@@H]2C
active
O=C(O)CCCn1c(SCc2c(Cl)cccc2Cl)nc2ccsc2c1=O
inactive
O=C(CCCCCCN1CC(=O)N2[C@@H](c3ccc(Cl)cc3)c3[nH]c4ccccc4c3C[C@H]2C1=O)NO
inactive
CCOC(=O)Nc1nc2ccc(SCC(C)C)cc2s1
inactive
O=C(CN1C(=O)NC2NC(=O)NC21)N/N=C/c1ccc(Cl)cc1Cl (stereo not given)
inactive
CC(=O)N/C(=C1/OC(C(O)C(O)C(O)CO)CN1C)[P+](c1ccccc1)(c1ccccc1)c1ccccc1 (stereo not given)
inactive

Q: Tell me the recorded outcome of this test for `O=C(O)c1cccc(N/C=C/C(=O)c2cc3cc(Br)ccc3oc2=O)c1` .
A: inactive

Q: Please share the test call associated with `CC(C)c1ccc(NC(=O)Nc2ccc(NC(=O)c3ccccc3N)cc2)cc1` .
A: inactive

----------
# System: SNB-19 CNS
# measurement-description: NCI-60 one-dose screen, 48 h (100 = growth as untreated, 0 = no growth, -100 = all killed)
# assay-context: 10 µM unless noted
The panel holds about 83,000 compounds, 20% with a hit somewhere; the sample as a whole holds those more often.
measured-quantity: growth (%)
Number only, in %; omit the unit.

COC(=O)C1=Nc2ccc(F)cc2/C1=C\c1sc(Nc2ccc(O)cc2)nc1O
45.7
O=S(=O)(c1ccccc1)N1CCCN(c2nc(-c3ccccc3)nc3nc(-c4ccccc4)oc23)CC1
101
O=C(/C=C/C12c3ccccc3C(c3ccccc31)C1C(=O)NC(=O)C12)c1ccc(F)cc1 (stereo not drawn)
10.6
CNCc1cccc2c1OCCOCCN(C)C(=O)CN(C)S(=O)(=O)c1ccc(cc1)-c1cnc(N)c(n1)C(=O)N2
25.5
O=C(/C=C/c1cccc(Cl)c1)c1cccc(OCCCCOc2cccc(C(=O)/C=C/c3cccc(Cl)c3)c2)c1
91

Q: Read off the recorded growth for `O=C(N=Nc1c(O)[nH]c2ccccc12)Nc1ccc(Cl)cc1`
A: 89.3

Q: Check the records and state growth for `CCOC(=O)c1c2c(n3c1NCC3)-c1ccccc1C2=O`
A: 99.3

Q: Identify measured growth corresponding to `O=C(O)c1cccc(N/C=C/C(=O)c2cc3cc(Br)ccc3oc2=O)c1`
A: 94
